Property: growth; scope: individual compounds
test system: HCT-15 colon; experiment: NCI-60 one-dose screen, 48 h (100 = growth as untreated, 0 = no growth, -100 = all killed); conditions: 10 µM unless noted
About 83,000 compounds went through this panel and 20% of them were active in at least one assay; those are over-represented in the sample as a whole. Calls of active or inactive are those of the source. The calls were made as follows: active = growth percent below 10; inactive = the rest.

compound	growth
CCN(CC)CCOc1ccc(C(=C(C)c2ccc(OC)cc2)c2ccc(OCCN(CC)CC)cc2)cc1	-27.1% (active)
O=C1c2ccccc2C23C(=C(c4cncnc4)c4ccccc42)CCCN13 (stereo not given)	104% (inactive)
COc1cc(-c2nc(-c3ccccc3)[nH]c2-c2ccnc(NCCCNS(=O)(=O)c3ccc(C)cc3)n2)ccc1F	62.9% (inactive)
C/C(=N\NC(=O)Nc1ccccc1)c1nnn(-c2ccc([N+](=O)[O-])cc2)c1C	105% (inactive)
O=C(CCCCCCNC(=O)C(O)(O)C(F)(F)F)Nc1ccc(Cl)cc1	39.1% (inactive)
Cc1c(C(=O)/C=C/c2ccc(Cl)cc2)nnn1-c1ccc2oc(=O)ccc2c1	87.3% (inactive)
COc1ccc(C2c3[nH]c4ccc(Cl)cc4c3CCN2c2oc(CO)nc2C#N)cc1 (stereo not given)	22.2% (inactive)
CN(C)c1ccc(/C=N/Nc2nc(N/N=C/c3ccc(N(C)C)cc3)nc(N3CCCCC3)n2)cc1	0.121% (active)
N#Cc1nc(-c2ccc(Cl)cc2)oc1N1CCC(S(=O)(=O)N2CCOCC2)CC1	105% (inactive)
Cc1ccc2c(n1)C(=O)C(Cl)=C(Nc1cccc(C(F)(F)F)c1)C2=O	-61.1% (active)
C[C@H]1OCC2(CCN(c3cnc(C(=O)Nc4cc(F)cc5cccnc45)cn3)CC2)[C@H]1N	14.5% (inactive)
CN(C)CCNc1ccc2ncc(C#Cc3cncc(C(=O)Nc4ccc(CN5CCN(C)CC5)c(C(F)(F)F)c4)c3)n2n1	34.7% (inactive)
CCOc1cccc(/C(N)=N/C(N)=N/c2nc3ccccc3s2)c1	49.9% (inactive)
Cc1ccc(S(=O)(=O)c2nc(-c3ccc(F)cc3)oc2S(C)(=O)=O)cc1	13.4% (inactive)
CCCC[n+]1ccc(SCC(=O)n2ccc3ccccc32)c2ccccc21	103% (inactive)
O=C(Nc1cccc(C(F)(F)F)c1)N1CCN(c2cc(-c3cn(-c4ccccc4)nc3-c3cccc(O)c3)ccn2)CC1	22.2% (inactive)
O=C(Nc1ccc(N=Cc2c(O)[nH]c3ccccc23)cc1)Nc1ccc(S(=O)(=O)Nc2ncccn2)cc1	97.4% (inactive)
CCCCSC1=C(Cl)CN(c2ccc(Cl)cc2)C1=O	96.1% (inactive)
O=C(Nc1cccc(Cl)c1)Nc1nc2cc([N+](=O)[O-])ccc2o1	29.4% (inactive)
CCCCc1nc2c(N)nc3ccccc3c2n1Cc1ccc(OC)cc1	58.3% (inactive)

---

system: DU-145 prostate; assay: NCI-60 one-dose screen, 48 h; settings: 10 µM unless noted
The panel holds about 83,000 compounds, 20% with a hit somewhere; the sample as a whole holds those more often. Active and inactive are the calls of the source. How the source made its calls: active means growth percent below 10; inactive means the rest.
Outcomes: 1 = active, 0 = inactive

compound	category
O=C(CCCCCCNC(=O)C(O)(O)C(F)(F)F)Nc1nc2ccccc2s1	1
O=C(CCCCCCNC(=O)C(O)(O)C(F)(F)F)Nc1ncc(-c2ccc(Br)cc2)s1	1
C#C[C@]1(O)CC[C@H]2[C@@H]3CC=C4c5sc(Nc6ncccc6C)nc5CC[C@]4(C)[C@H]3CC[C@@]21C	0
CC(Nc1ncnc2ccc(-c3cnc(N)nc3)cc12)c1ccccc1 (centres undefined)	0
CCc1cc(O)ccc1Nc1cc(-c2ccc(-n3cccn3)cc2)[nH]n1	0
COc1ccc2c(c1)c(/C=N/Nc1ccnc3cc(Cl)ccc13)cn2C	1
C=C(C)[C@@H]1CC[C@]2(C(=O)NC3CCCCC3)CC[C@]3(C)[C@H](CC[C@@H]4[C@@]5(C)CC[C@H](N)C(C)(C)[C@@H]5CC[C@]43C)[C@@H]12	0
COc1cccc(N2CCN(C3=C(Cl)C(=O)c4ncccc4C3=O)CC2)c1	0
CCc1cc(OC(=O)N2CCN(CCC(C)(COC(C)(C)C)COC(C)(C)C)CC2)ccc1Nc1cc(-c2ccc(-n3cccn3)cc2)[nH]n1	0
O=[N+]([O-])c1ccc(NC(=S)NNC(=S)Nc2ccc(F)cc2)cc1	0
C/C(=N\NC(=O)/C=C/CC(=O)O)c1nnn(-c2ccc([N+](=O)[O-])cc2)c1C	0
O=S(=O)(Oc1ccc(-c2cn3ccoc3n2)cc1)c1cccc(C(F)(F)F)c1	0
O=c1oc2ccc(-c3ccc(F)cc3F)cc2c(=O)n1-c1ccc(Br)cc1F	0
COc1cc2cc(Oc3ccc(NC(=O)c4cc(C(F)(F)F)cc(C(F)(F)F)c4)cc3)c(C)nc2cc1OCCN1CCOCC1	0
O=C(/C=C/c1ccccc1)c1cccc(O)c1	0
CN1CCN(c2ccc(Nc3nc(NCCNC(=O)c4ccccc4)c4sccc4n3)cc2)CC1	0
Oc1ccc(-c2nc3ccc(/C(=N\N=C\c4ccc(Cl)cc4)c4ccccc4)cc3[nH]2)cc1	0
O=C(Nc1ccccc1)Nc1nc2ccc([N+](=O)[O-])cc2[nH]1	0
C(=N\Nc1nc(N/N=C/c2ccc3c(c2)OCO3)nc(N2CCCCC2)n1)/c1ccc2c(c1)OCO2	0

From: PubChem BioAssay (NCI)
